System: tofacitinib metabolism in rat liver microsomes (enzyme not specified)
assay comment: Inhibition of tofacitinib metabolism in rat liver microsomes
Type: in vitro ADME
test conditions: probe tofacitinib
test readout: IC50 at 30 min (µM)

A: CC#CCn1c(N2CCC[C@@H](N)C2)nc2c1c(=O)n(Cc1nc(C)c3ccccc3n1)c(=O)n2C
B: COc1ccc2c(c1)C(=O)N(CCc1ccc(S(=O)(=O)NC(=O)NC3CCCCC3)cc1)C(=O)C2(C)C
Problem: Could you please tell me which of these two has the higher IC50 at 30 min: A or B ? Identify your pick by its label.
Result: A

====

assay comment: in vitro
test conditions: Sprague-Dawley, rat, liver microsomes
test readout: Km at 30 min (µM)
Provide only the numeric value, understood in µM.

Problem: What value of Km at 30 min has been recorded for this entry: C[C@@H]1CCN(C(=O)CC#N)C[C@@H]1N(C)c1ncnc2[nH]ccc12
Result: 37.3
